FYI, the data here is from the RNAGym collection of RNA variant scans (doi:10.1101/gr.219683.116).

Would you kindly list exon inclusion enrichment index for each of these variants?
B1: mRNA-splicing (parent)
chain: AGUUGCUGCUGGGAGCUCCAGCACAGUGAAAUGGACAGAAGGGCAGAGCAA

variants of: B1; assay: exon inclusion enrichment index; higher = more inclusion; WT1 exon 5 minigene, HEK293
Answer using only a numeral; do not append any unit.

Exam item: Given the variant G21A C22U , what is its reported exon inclusion enrichment index?
Marked response: 1.19

Exam item: Repeat for the following variant: U4C G5C C6A U7C G8A U10A
Marked response: 0.286

Exam item: Follow-up item: G5A C6U U7A G8U C9A C16G U17C
Marked response: 0.00521

Exam item: Would you mind doing G5A C6G U7G C9A A37G G38A as well?
Marked response: 0.0012

Exam item: // query: G5A C6U U7A G8U C9A G33A G34C
Marked response: 0.0195

Exam item: Request: G5A C6U U7A G8U C9A C44A
Marked response: 0.286

Exam item: Entry to check: G5C C6U G8C C9U U10C G38U
Marked response: 0.577

Exam item: Do the same for G5C C6G U7C U10C A31U U32G please
Marked response: 2.24

Exam item: What do we get for G5C C6G U7C U10C A37C G38U ?
Marked response: 2.1

Exam item: Entry to check: G5C C6U G8C C9U U10C A40C
Marked response: 2.94

Exam item: Record: G43U C44G
Marked response: 0.0978

Exam item: Same again, this time with G5A C6U
Marked response: 0.0142

Exam item: Again, but for G5A U7C G8A U10C A23C C24A
Marked response: 2.48

Exam item: Thanks! And G5A C6G U7G C9A G33A G34C ?
Marked response: 0.000823

Exam item: Now the same for G5U U7A G8U C9U
Marked response: 0.343

Exam item: Follow-up entry: G5C C6U U7G G8A U10A
Marked response: 0.0911

Exam item: Next variant up: G5C C6A U7C G8A U10A U17G C18A
Marked response: 0.109

Exam item: Okay, and G5A U7C G8A U10C A20G ?
Marked response: 2.79

Exam item: Similarly, G5C C6U G8C C9U U10C G42C ?
Marked response: 3.76

Exam item: Then G5U C6G U7A C9A U10A ?
Marked response: 0.147

Exam item: // same read-out, input: G5C C6A U7C G8A U10A G21A C22U
Marked response: 0.0694

Exam item: One more variant: C6A U7A G8A C9G U10A
Marked response: 0.2

Exam item: Subsequent entry: G42A
Marked response: 0.734

Exam item: Would you kindly repeat that for G5C C6U G8C C9U U10C C19G ?
Marked response: 1.61

Exam item: Same for A35G C36A
Marked response: 0.0734

Exam item: Also check G5U G8U C9U G42C G43C
Marked response: 0.708

Exam item: Quick one: G5C C6G U7C U10C A20U G21C
Marked response: 2.93

Exam item: And then G5A C6U U7A G8U C9A G15C C16U , what is it?
Marked response: 0.0353

Exam item: Note, next up: C6A U7C C9A U10C A39C
Marked response: 1.37

Exam item: // next record G5A C6U G8U C9A
Marked response: 0.038

Exam item: Do the same for G5C C6G U7C U10C A30U A31G please
Marked response: 3.75

Exam item: Same thing, different variant: U4C C6U U7A G8U C9A
Marked response: 1.12

Exam item: Another variant: G5A C6G U7G C9A G13A
Marked response: 0.0025

Exam item: Now this one: C6A U7C C9A U10C A29U A30U
Marked response: 1.98

Exam item: Repeat for the following variant: G5A U7A G8C U10C
Marked response: 1.42

Exam item: And what about the variant G46C ?
Marked response: 0.155

Exam item: Can you handle C6A U7C C9A U10C A30C next?
Marked response: 3.29

Exam item: # repeat for C6A U7A C9A U10A C22G
Marked response: 0.964

Exam item: Then what about the variant C6A U7A C9A U10A C22A A23U ?
Marked response: 0.354

Exam item: Param item: C6A U7A C9A U10A C19U A20U
Marked response: 0.19

Exam item: Moving on to the next variant: G5A C6G U7G C9A A45U G46A
Marked response: 0.00219

Exam item: Do the same for G5U U7C G8A U10C please
Marked response: 1.83

Exam item: Can you check G5A C6G U7G C9U U10G next?
Marked response: 0.493

Exam item: Now consider G5A C6U U7A G8U C9A U27G .
Marked response: 0.0103

Exam item: Repeat for the following variant: G5C C6A U7C G8A U10A G13C A14G
Marked response: 0.278

Exam item: Now the variant G5C C6A U7C G8A U10A A39G A40C
Marked response: 0.119

Exam item: Same read-out for G5C C6A ?
Marked response: 0.0337

Exam item: Repeat with C6A U7A C9A U10A A14C
Marked response: 0.774

Exam item: Also need G5U C6A U7C U10C , thanks.
Marked response: 3.2

Exam item: Also need G5U G8U C9U G43U C44U , thanks.
Marked response: 0.0283

Exam item: What would you report for G15U C16A ?
Marked response: 0.0156

Exam item: Same question for G5C C6U G8C C9U G11A please.
Marked response: 0.125

Exam item: Consider next the variant G5C C6G U7C U10C U27C G28A in the same way.
Marked response: 3.28

Exam item: Also, G5C C6G U7C U10C A39U A40G please.
Marked response: 1.59

Exam item: Follow-up entry: G5U G8U C9U G33U G34C
Marked response: 0.0164

Exam item: Can you check G5A C6G U7G C9A A47U G48C next?
Marked response: 0.000966

Exam item: Also U3A U4G G5A U7C G8A U10C ?
Marked response: 3.06

Exam item: Another variant: G5A U7C G8A U10C A23C C24G
Marked response: 3.75

Exam item: Could you do the same for G5C C6A U7C G8A U10A A25C G26U , please?
Marked response: 0.241

Exam item: Next record, please: C18G C19A
Marked response: 2.92

Exam item: Field entry: G5U G8U C9U C16G U17A
Marked response: 0.115

Exam item: Entry A23C C24A please
Marked response: 0.968

Exam item: Please answer likewise for G42U G43A
Marked response: 0.492

Exam item: Same thing, different variant: C6A U7A C9A U10A C44G A45C
Marked response: 1.44

Exam item: Now give it for G5U G8U C9U G43A C44G too.
Marked response: 0.749

Exam item: What do you get for G5A U7C G8A U10C U17A C18U ?
Marked response: 1.52

Exam item: Next entry: G5C C6G U7C U10C G13C A14U
Marked response: 1.88

Exam item: Repeat for the following variant: A31C
Marked response: 0.288

Exam item: Continue with A30G A31G
Marked response: 0.0117

Exam item: Try the variant A35C C36A
Marked response: 0.0616

Exam item: Now try G5A U7C G8A U10C A37U G38A .
Marked response: 0.876

Exam item: Now consider G5U G8U C9U G38C A39G and answer again.
Marked response: 0.136

Exam item: Now the variant G5C C6A U7C G8A U10A G12A G13A
Marked response: 0.114

Exam item: Then what about the variant G5A U7C G8A U10C G13C A14U ?
Marked response: 1.45

Exam item: Same question, G5A C6G U7G C9A G41U G42U this time
Marked response: 0.00223

Exam item: And the next one, A14G G15U ?
Marked response: 0.0597

Exam item: Try this variant too: G5U G8U C9U C19U A20U
Marked response: 0.0205

Exam item: Again, but for G5C C6G U7C U10C C36U A37U
Marked response: 2.2

Exam item: Further, for G5A C6U U7A G8A U10C ?
Marked response: 0.863

Exam item: Next variant up: G5U G8U C9U A23C C24A
Marked response: 0.231

Exam item: Can you check C6A U7C C9A U10C A45C next?
Marked response: 3.19

Exam item: Try G5A C6G U7G C9A G12C G13C next.
Marked response: 0.00164

Exam item: Consider next the variant G5A U7C G8A in the same way.
Marked response: 1.09

Exam item: Now consider G5C C6G U7C U10C G34C A35U and answer again.
Marked response: 1.1

Exam item: Next variant up: G5A U7C G8A C9U U10A
Marked response: 0.0302

Exam item: Next: G5U G8U C9U A45U G46U
Marked response: 0.0271

Exam item: Another variant to check: G5A C6G U7G C9A G13U A14C
Marked response: 0.00403

Exam item: Queued: U3G U4C G5A C6G U7G C9A
Marked response: 0.0394

Exam item: Note, next up: G5C C6A U7G G8A U10A
Marked response: 0.0223

Exam item: Consider next the variant G5A U7C G8A U10C G12A in the same way.
Marked response: 1.48

Exam item: Another variant to check: G5C C6G U7C U10C A39C A40C
Marked response: 3.63
